target.or.test.system: ATP-dependent translocase ABCB1 (Homo sapiens, UniProt P08183)
Sequence (P08183 whole entry): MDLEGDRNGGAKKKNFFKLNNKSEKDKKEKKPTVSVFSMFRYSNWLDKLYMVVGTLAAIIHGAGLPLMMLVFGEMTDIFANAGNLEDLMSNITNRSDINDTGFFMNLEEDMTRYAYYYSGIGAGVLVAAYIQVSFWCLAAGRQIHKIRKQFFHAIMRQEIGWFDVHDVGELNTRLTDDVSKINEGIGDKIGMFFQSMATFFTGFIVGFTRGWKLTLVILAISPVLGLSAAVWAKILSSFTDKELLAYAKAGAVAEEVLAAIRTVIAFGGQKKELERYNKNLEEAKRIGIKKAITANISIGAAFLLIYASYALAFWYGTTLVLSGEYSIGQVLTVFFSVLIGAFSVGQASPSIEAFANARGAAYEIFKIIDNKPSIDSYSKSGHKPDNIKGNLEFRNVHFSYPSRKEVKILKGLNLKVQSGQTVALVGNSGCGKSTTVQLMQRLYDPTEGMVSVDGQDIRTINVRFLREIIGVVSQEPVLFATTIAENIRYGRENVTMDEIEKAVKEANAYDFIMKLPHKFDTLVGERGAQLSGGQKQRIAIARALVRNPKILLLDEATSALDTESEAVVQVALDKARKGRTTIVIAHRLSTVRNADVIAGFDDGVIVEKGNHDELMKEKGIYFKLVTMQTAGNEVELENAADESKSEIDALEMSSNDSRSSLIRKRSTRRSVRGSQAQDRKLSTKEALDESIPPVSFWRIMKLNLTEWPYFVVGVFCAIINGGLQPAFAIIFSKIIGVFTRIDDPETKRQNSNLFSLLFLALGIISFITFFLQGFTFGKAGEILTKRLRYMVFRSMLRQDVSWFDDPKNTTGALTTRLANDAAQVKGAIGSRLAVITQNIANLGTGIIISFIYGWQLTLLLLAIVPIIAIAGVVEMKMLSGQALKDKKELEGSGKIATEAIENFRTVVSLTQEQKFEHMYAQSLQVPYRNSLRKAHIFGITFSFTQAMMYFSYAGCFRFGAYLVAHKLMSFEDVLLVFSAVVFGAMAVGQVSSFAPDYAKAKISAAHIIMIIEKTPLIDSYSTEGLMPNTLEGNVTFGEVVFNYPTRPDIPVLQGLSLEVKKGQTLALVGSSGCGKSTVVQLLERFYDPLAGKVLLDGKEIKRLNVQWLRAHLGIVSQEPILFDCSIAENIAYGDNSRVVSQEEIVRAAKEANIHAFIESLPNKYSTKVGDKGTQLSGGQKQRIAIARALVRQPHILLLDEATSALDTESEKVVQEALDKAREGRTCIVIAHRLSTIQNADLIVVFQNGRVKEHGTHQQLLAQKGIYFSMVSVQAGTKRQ
test.details: Reversal of P-gp mediated multidrug resistance in human DU145-TxR cells overexpressing P-gp assessed as potentiation of paclitaxel-induced cytotoxicity by measuring fold reduction paclitaxel IC50 at 5 uM after 48 hrs by MTT assay relative to parent compound
Assay type: cell-based
measurement.type: fold change (FC)

Look over these answered cases.
Cc1cc(C)c(-c2cc(NC(=O)CSCC(=O)c3ccc4c(c3)Cc3ccccc3-4)n(-c3ccccc3)n2)cc1C | 1.3
Cc1cc(C)c(-c2cc(NC(=O)CSCC(=O)NC34CC5CC(CC(C5)C3)C4)n(-c3ccccc3)n2)cc1C | 1.8
Cc1cc(C)c(-c2cc(NC(=O)CSc3n[nH]c(C4CC4)n3)n(-c3ccccc3)n2)cc1C | 1
Cc1cc(C)c(-c2cc(NC(=O)CSCC(=O)NCc3ccc(F)cc3)n(-c3ccccc3)n2)cc1C | 0.5
Cc1cc(C)c(-c2cc(NC(=O)CSCC(=O)N3c4ccccc4CCc4ccccc43)n(-c3ccccc3)n2)cc1C | 3.7

Task: If you can, please state the reported fold change (FC) value of Cc1cc(C)c(-c2cc(NC(=O)CSc3cccc(NC(=O)c4cncc(Br)c4)c3)n(-c3ccccc3)n2)cc1C .
Output: 9.7

Task: Would you kindly repeat that for Cc1cc(C)c(-c2cc(NC(=O)CSCC(=O)Nc3ccc4ccccc4c3)n(-c3ccccc3)n2)cc1C ?
Output: 4.2

Task: Now try COc1cc(NC(=O)CSCC(=O)Nc2cc(-c3cc(C)c(C)cc3C)nn2-c2ccccc2)cc(OC)c1OC .
Output: 102
